protocol summary: Disaggregation of Cu2+ induced amyloid beta (1 to 40) preformed fibrils assessed as fluorescence emission at 100 uM after 12 days by thioflavin-T based assay (reference value: 150.21 +/- 2.32)
measured metric: Flu intensity
Please state the value as a number alone, without comment.

Solved entries:
Cl.Oc1ccc(/C=N/CCNCCn2cnc3ccccc32)c(O)c1
48
O=C(NCCNc1ccnc2cc(Cl)ccc12)c1cnccn1
71.7
Cl.Nc1ncnc2c1ncn2CCNCC/N=C/c1ccc(O)cc1O
38.4

Per the record, Oc1ccccc1/C=N/CCNc1ccnc2cc(Cl)ccc12 has Flu intensity of 68.2

Per the record, Oc1ccc(/C=N/CCn2ccc3cccnc32)c(O)c1 has Flu intensity of 74.3

Per the record, Oc1ccc(/C=N/CCn2ccc3ccccc32)c(O)c1 has Flu intensity of 59

Per the record, Oc1ccc(/C=C/c2cc(O)cc(O)c2)cc1 [RESVERATROL] has Flu intensity of 25.2

====

protocol summary: Metal chelating activity assessed as compound-Cu2+ adduct formation at 20 uM by spectrophotometric titration analysis
Listed here are compounds together with their documented logKa.

Solved entries:
Cl.Oc1ccc(/C=N/CCNCCn2cnc3ccccc32)c(O)c1
14.8
Cl.Nc1ncnc2c1ncn2CCNCC/N=C/c1ccc(O)cc1O
14.8
Oc1ccc(/C=N/CCn2ccc3cccnc32)c(O)c1
12.7
Oc1ccc(/C=N/CCn2ccc3ccccc32)c(O)c1
13.4

Pending compound:
Per the record, Oc1ccccc1/C=N/CCNc1ccnc2cc(Cl)ccc12 has logKa of 15.3

====

study target: UniProt:P05067
Sequence (P05067 whole entry): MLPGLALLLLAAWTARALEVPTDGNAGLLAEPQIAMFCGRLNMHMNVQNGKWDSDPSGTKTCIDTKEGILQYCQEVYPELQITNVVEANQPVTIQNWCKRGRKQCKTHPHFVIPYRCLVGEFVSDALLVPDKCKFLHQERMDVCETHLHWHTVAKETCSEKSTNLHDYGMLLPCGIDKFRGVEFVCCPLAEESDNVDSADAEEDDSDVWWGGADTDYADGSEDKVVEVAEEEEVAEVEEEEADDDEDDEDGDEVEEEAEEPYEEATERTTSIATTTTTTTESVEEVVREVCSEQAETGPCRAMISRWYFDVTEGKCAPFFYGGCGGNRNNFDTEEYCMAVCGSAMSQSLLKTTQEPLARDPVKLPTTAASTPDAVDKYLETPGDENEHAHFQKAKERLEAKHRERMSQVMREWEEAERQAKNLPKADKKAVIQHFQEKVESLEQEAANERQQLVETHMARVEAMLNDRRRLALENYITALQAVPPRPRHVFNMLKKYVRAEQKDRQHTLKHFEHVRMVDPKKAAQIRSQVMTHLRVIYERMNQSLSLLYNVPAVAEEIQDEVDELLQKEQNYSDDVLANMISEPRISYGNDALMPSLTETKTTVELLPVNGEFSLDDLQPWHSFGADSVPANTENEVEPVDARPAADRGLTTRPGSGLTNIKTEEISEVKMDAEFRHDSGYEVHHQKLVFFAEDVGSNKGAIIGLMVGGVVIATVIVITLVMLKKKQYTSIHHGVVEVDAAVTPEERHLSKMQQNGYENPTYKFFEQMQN
protocol summary: Inhibition of self-induced amyloid beta (1 to 40) (unknown origin) fibril aggregation assessed as aggregation level at 100 uM measured on day 10 by UV-visible turbidity method
Design: scale not given: the % may be the effect or the level left
measured metric: Activity (%)
The reply should contain only the number, in %.

Solved entries:
O=C(NCCNc1ccnc2cc(Cl)ccc12)c1cnccn1
188
Cl.Oc1ccc(/C=N/CCNCCn2cnc3ccccc32)c(O)c1
69
Cl.Nc1ncnc2c1ncn2CCNCC/N=C/c1ccc(O)cc1O
89.8

Per the record, Oc1ccc(/C=N/CCn2ccc3ccccc32)c(O)c1 has Activity of 73

Per the record, Oc1ccccc1/C=N/CCNc1ccnc2cc(Cl)ccc12 has Activity of 94.3

Per the record, Oc1ccc(/C=N/CCn2ccc3cccnc32)c(O)c1 has Activity of 84.2

====

protocol summary: Disaggregation of Cu2+ induced amyloid beta (1 to 40) preformed fibrils assessed as aggregation level at 100 uM after 4 days by UV-visible turbidity method (reference value: 143.11 +/- 0.76%)
Listed here are molecules together with their documented Activity.
The reply should contain only the number, in %.

Solved entries:
Oc1ccccc1/C=N/CCNc1ccnc2cc(Cl)ccc12
78
Cl.Oc1ccc(/C=N/CCNCCn2cnc3ccccc32)c(O)c1
48.5

Per the record, Oc1ccc(/C=C/c2cc(O)cc(O)c2)cc1 has Activity of 23.9

Per the record, Cl.Nc1ncnc2c1ncn2CCNCC/N=C/c1ccc(O)cc1O has Activity of 48.9

Per the record, Oc1ccc(/C=N/CCn2ccc3cccnc32)c(O)c1 has Activity of 85.4

Per the record, O=C(NCCNc1ccnc2cc(Cl)ccc12)c1cnccn1 has Activity of 87.7

Per the record, Oc1ccc(/C=N/CCn2ccc3ccccc32)c(O)c1 has Activity of 58.6

====

Listed here are compounds together with their documented Activity.
protocol summary: Inhibition of Cu2+ induced amyloid beta (1 to 40) fibril aggregation assessed as aggregation level at 100 uM measured on day 7 by UV-visible turbidity method (reference value: 100 +/- 0.96%)
Set-up: scale not given: the % may be the effect or the level left
The reply should contain only the number, in %.

Solved entries:
Oc1ccc(/C=N/CCn2ccc3ccccc32)c(O)c1
112
O=C(NCCNc1ccnc2cc(Cl)ccc12)c1cnccn1
135
Cl.Oc1ccc(/C=N/CCNCCn2cnc3ccccc32)c(O)c1
58.5
Cl.Nc1ncnc2c1ncn2CCNCC/N=C/c1ccc(O)cc1O
94.8
Oc1ccc(/C=C/c2cc(O)cc(O)c2)cc1 [RESVERATROL]
35.9

Per the record, Oc1ccc(/C=N/CCn2ccc3cccnc32)c(O)c1 has Activity of 129

Per the record, Oc1ccccc1/C=N/CCNc1ccnc2cc(Cl)ccc12 has Activity of 98.5

====

protocol summary: Toxicity in Tetrahymena thermophila assessed as decrease in viability after 48 hrs by MTT assay
Format: organism-based
condition description: Tetrahymena thermophila cells, read-out: LD50
measured metric: LC50 at 48 h (µM)
The reply should contain only the number, in µM.

Solved entries:
Oc1ccc(/C=N/CCn2ccc3ccccc32)c(O)c1
556
Cl.Oc1ccc(/C=N/CCNCCn2cnc3ccccc32)c(O)c1
529
Oc1ccc(/C=N/CCn2ccc3cccnc32)c(O)c1
610
Cl.Nc1ncnc2c1ncn2CCNCC/N=C/c1ccc(O)cc1O
811

Per the record, Oc1ccc(/C=C/c2cc(O)cc(O)c2)cc1 [RESVERATROL] has LC50 at 48 h of 240

====

protocol summary: Inhibition of Cu2+ induced amyloid beta (1 to 40) fibril aggregation assessed as fluorescence emission at 100 uM measured on day 7 by thioflavin-T based assay (reference value: 181.04 +/- 1.74)
Use yes (1) when the recorded Flu intensity is no lower than 200; use no (0) when it is lower.

Oc1ccccc1/C=N/CCNc1ccnc2cc(Cl)ccc12
no (0)
Oc1ccc(/C=C/c2cc(O)cc(O)c2)cc1 [RESVERATROL]
no (0)

Please tell me: is the compound O=C(NCCNc1ccnc2cc(Cl)ccc12)c1cnccn1 at or over 200 in terms of Flu intensity?
yes (1)

Please tell me: is the compound Oc1ccc(/C=N/CCn2ccc3cccnc32)c(O)c1 at or over 200 in terms of Flu intensity?
yes (1)

Please tell me: is the compound Cl.Oc1ccc(/C=N/CCNCCn2cnc3ccccc32)c(O)c1 at or over 200 in terms of Flu intensity?
no (0)
